Each recorded value in this set is attributed to the supplement of paper PMC10724198.

Task for the reader: assign each of the following sequences its reported protein stability index.
# Tested on: Saccharomyces cerevisiae
# ASSAY_METHOD_TEXT: protein stability index of tFT-peptide fusion (C-terminal peptide) (PSI (0-1 scale)); higher = more stable (slower turnover)
# SETUP_CONDITIONS: genetic background: wild type; temperature: 37 C
Answers are plain numbers.

Batch request: protein stability index for each of the following sequences.
1. YRFVWRWIPICA
2. SPGFVLLAVLVI
3. ISATYSYIPVVG
4. LPSLRPPPCIRA
5. CLRFVFWFVCFV
6. SFFFLILFLFRD
7. YFIVVSWFLVCW
8. SSAFFFLLFSLA

0.057
0.323
0.507
0.513
0.231
0.466
0.168
0.446

Batch of 2 sequences: report protein stability index for each.
1. LRLFIFLLFSVF
2. FCLFMFVPLLPL

1. 0.249
2. 0.564

====

# Tested on: Saccharomyces cerevisiae
# ASSAY_METHOD_TEXT: protein stability index of tFT-peptide fusion (C-terminal peptide) (PSI (0-1 scale)); higher = more stable (slower turnover)
# SETUP_CONDITIONS: genetic background: wild type; temperature: 30 C
Think of 0.7 as a floor: if protein stability index stands on it or above, it is Met; beneath it, Not met.

For orientation, consider the following solved cases.
>>> assigned_category("PPPPRPPPALLP")
"Met"
>>> assigned_category("GMYRHEGQSWDL")
"Met"
>>> assigned_category("PPVGPPFPPLPH")
"Met"

Quick check: does DLGIFVSQQIEV have protein stability index greater than or equal to 0.7?
Not met

Form field: protein stability index at least 0.7? Entry: LWPQFPPRQLVD
Met

Evaluate TQSPANIIQRKT : protein stability index at minimum 0.7?
Not met

Has CSLRSSGLGFKQ a recorded protein stability index greater than or equal to 0.7?
Not met

Is it the case that SRTVSLDYHFMS has protein stability index reaching or exceeding 0.7?
Met

Has SRLMGLGLLCVG a recorded protein stability index greater than or equal to 0.7?
Not met

Quick check, protein stability index >= 0.7? GPLNQALLHCSV
Not met

====

# System: Saccharomyces cerevisiae
# ASSAY_METHOD_TEXT: protein stability index of tFT-peptide fusion (C-terminal peptide) (PSI (0-1 scale)); higher = more stable (slower turnover)
# SETUP_CONDITIONS: genetic background: doa10 deletion; temperature: 30 C
Decide by protein stability index: equal to or exceeding 0.2 means T, less means F.

Please review the entries below; each comes with its answer.
>>> assigned_category("FLFFMGVGVVLY")
"T"
>>> assigned_category("NASWAFLCYFCV")
"T"
>>> assigned_category("CTYSLSVLFVFF")
"T"

Is the recorded value of protein stability index equal to or greater than 0.2 for this sequence? YWRNYLVLVCKF
T

# check: protein stability index of VFCCHSSRFVFA is greater than or equal to 0.2
T

Confirm if protein stability index reported for the sequence CHSICLVILEFI is 0.2 or above.
F

Exam item: decide whether the reported protein stability index for GRFGVGVVFRLA is at least 0.2.
T

# bool: protein stability index of PRSLHVLSRFLP >= 0.2
T

Assess whether reported protein stability index for VVVWLFRIKSNV sits at 0.2 or higher.
T

Kindly determine if protein stability index recorded for FFLLLLRPPLVM is above or exactly 0.2.
T

====

# Test system: Saccharomyces cerevisiae
# ASSAY_METHOD_TEXT: protein stability index of tFT-peptide fusion (C-terminal peptide) (PSI (0-1 scale)); higher = more stable (slower turnover)
# SETUP_CONDITIONS: genetic background: cdc53-1; temperature: 37 C
I'd be grateful if you could share measured protein stability index for these entries.

>>> result("LWRRSLLLLRCC")
0.0759

# per-item lookup of protein stability index; items listed below
1. KLMGWFVGVVAR
2. RLVRILSTILLN
3. RIRRVMHLYTNN
4. VRDQGWILNMLL
5. DALHPCIIYLTC

1: 0.49; 2: 0.638; 3: 0.705; 4: 0.771; 5: 0.565

Dear colleague, could you please provide protein stability index for the sequences listed below?
1. CGCLPYIGTKLC
2. RPRRARLPNFLA
3. VCLVFLFQFVLI

[0.711, 0.64, 0.507]

Items follow; give protein stability index for each.
1. GFFFLFFVSAFI
2. SFFFLILFLFRD
3. CLRFVFWFVCFV
4. GRGRGGRWGRLC
5. VVFRCSSFFCLV
6. WVVVARIFSVFF
7. CLVISVLFGVVA

1. 0.455
2. 0.459
3. 0.238
4. 0.739
5. 0.616
6. 0.561
7. 0.269

// each listed sequence needs a value for protein stability index
1. LWGVGRQRNIAS
2. NTYKICVVSVTS
3. DVRLVLCEMIKG

1. 0.758
2. 0.552
3. 0.612

====

# Test system: Saccharomyces cerevisiae
# ASSAY_METHOD_TEXT: protein stability index of tFT-peptide fusion (C-terminal peptide) (PSI (0-1 scale)); higher = more stable (slower turnover)
# SETUP_CONDITIONS: genetic background: wild type; temperature: 30 C
Binning scheme for protein stability index: 0 = under 0.6, 1 = from 0.6 up to 0.7, 2 = 0.7 and over

# example entries with known answers
>>> assigned_category("SPDHATYHNPAR")
2
>>> assigned_category("FLGGVGGLVLIG")
1
>>> assigned_category("PPWPPLLPRPSP")
1
>>> assigned_category("VQSVIEPSIRYA")
1
>>> assigned_category("SRRVVDVGVIRV")
1

Determine which band this sequence sits in: VWSVSVTIVGRR
0

Which class holds RLVRILSTILLN ?
0

Place this sequence in its band: PTVFMNIQKQNI
1

Would you mind sorting VLFHWAGFFLFL into the appropriate category?
0

Which protein stability index category applies to KKKKRIQEKEII here?
1

Tag the class for CVVAISGLSHFL
1

Quick check: band for HFPIPPSLFFRP
1

Category lookup for the sequence PTLSPPSPPPPA
1

Looking at QRSGNEDWKDLL , which class would you pick?
2

Entry GQIKIRAFPKSR belongs to which category?
1

Band for VVGRLRGNWGSI ?
2

Class? Entry: AKVFGLILVLLT
0

Class label required: AVISSSFFGSSY
2

Field: class (protein stability index) — entry: LISRGNRALFCI
0

Into which category would you place SFTLPPPLLSRT ?
2

Quick check: band for GFYAWAISYLWQ
0

Hello team, could you let me know which band the following sequence falls into: RPAESPPAFYNR
2

For this sequence, which bin applies? WARLHLSGRYSL
2

Each sequence maps to one class by protein stability index. Which class for GRKGARESSNEI ?
1

Returns: class label. Input: GGGGLKVVGGGS
1

====

Answer each item with its documented protein stability index.
# Test system: Saccharomyces cerevisiae
# ASSAY_METHOD_TEXT: protein stability index of tFT-peptide fusion (C-terminal peptide) (PSI (0-1 scale)); higher = more stable (slower turnover)
# SETUP_CONDITIONS: genetic background: wild type; temperature: 30 C

>>> result("FLSVLPLFAFFA")
0.333
>>> result("PLRSLNHSGRPP")
0.641
>>> result("HSPTPLLPPSPS")
0.727

# batch: return protein stability index for each of the 5 sequences below
1. GCPIYSIIQIHR
2. CVIGRDGTDLWV
3. IIGPFDSYVYGL
4. VMIFYVLGRVWD
5. PRIKWKIQIIKK

1. 0.668
2. 0.685
3. 0.7
4. 0.455
5. 0.668

====

# Tested on: Saccharomyces cerevisiae
# ASSAY_METHOD_TEXT: protein stability index of tFT-peptide fusion in wild type (PSI (0-1 scale)); higher = more stable (slower turnover)
# SETUP_CONDITIONS: genetic background: wild type
Think of 0.2 as a floor: if protein stability index stands on it or above, it is yes (1); beneath it, no (0).

Please review the following examples before continuing.
>>> assigned_category("LVVYLSRVACIN")
"no (0)"
>>> assigned_category("RVTRLDAIYFVI")
"no (0)"
>>> assigned_category("GLYMCSVGCWFT")
"yes (1)"
>>> assigned_category("FSMRWTRRYWVN")
"no (0)"
>>> assigned_category("HSLAASFWRVVG")
"no (0)"
>>> assigned_category("LDILRQKMNHQN")
"no (0)"

Hi, just wondering whether RLIQPLPVQFLNR shows protein stability index of 0.2 or higher.
yes (1)

Determine whether this sequence has protein stability index no lower than 0.2: CTSCGYKFRTYN
yes (1)

Determine whether this sequence has protein stability index no lower than 0.2: FSKRWTFRYWVN
no (0)

Dear colleague, could you confirm whether PDKRNHLIKLIN has protein stability index at or above 0.2?
no (0)

Is it the case that LKILGQKMNHQN has protein stability index reaching or exceeding 0.2?
yes (1)

Item RVTRLDAIYFAI with protein stability index of 0.2 or above?
yes (1)

Hi, just wondering whether KKHKKGDKQKIN shows protein stability index of 0.2 or higher.
no (0)

Textbook exercise: given the entry ARWRVGLWRGASR , state whether its protein stability index is greater than or equal to 0.2.
yes (1)

Entry LKILRQKMNHQD : is its protein stability index no less than 0.2?
yes (1)

Quick check: does ARWIVGLWRGAS have protein stability index greater than or equal to 0.2?
yes (1)

Decide: is the reported value of protein stability index for LKPLRQKMNHQN equal to or greater than 0.2?
no (0)

Kindly determine if protein stability index recorded for FSMRWTFRWWVN is above or exactly 0.2.
no (0)

State whether the measured protein stability index reaches 0.2, counting equality as reaching it, for FSMRWTFRYWVNP
yes (1)
